system-under-test: T1, Human NKp46 Fc tag (Acro Biosystems, NC1-H5257) (human, UniProt O76036 22-255)
T1 construct: bought; also called Fc-tagged human NKp46
T1 sequence (O76036 22-255 limits assumed): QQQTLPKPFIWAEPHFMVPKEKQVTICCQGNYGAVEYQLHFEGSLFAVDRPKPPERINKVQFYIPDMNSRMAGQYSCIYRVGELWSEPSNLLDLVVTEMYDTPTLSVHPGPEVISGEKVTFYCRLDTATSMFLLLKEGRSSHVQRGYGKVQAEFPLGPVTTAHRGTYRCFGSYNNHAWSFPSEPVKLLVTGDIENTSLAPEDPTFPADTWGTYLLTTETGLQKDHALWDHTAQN
test-details: SPR Method 1 and/or 2
Numbered stars: 1 amine (or outer) side, 2 acyl side, 3 side chain; on linkers, the order of the positions; unused ones are H or OH. Bridge positions count the residues as written; N and C are the ends. Square brackets hold non-standard residues; d marks the D form. Ends that are not written are not given here. * marks the point of attachment. TATA = O=C(CC[*:1])N1CN(C(=O)CC[*:2])CN(C(=O)CC[*:3])C1; NMeA = CN[C@@H](C)C(=O)O; Pent4ynoyl = C#CCCC(=O)*
measured-quantity: pKd
Give bare numbers, as −log10 of the molar value.

Reference set, count: 2
binder	pKd
ACNLQAPCMLTGKACA-NH2 (linker 2-8-15 via TATA; also: scaffold TATA, TATB or TBMT, scaffold TATA) [BCY18305]	6.04
ACNLQA[NMeA]CMLTGKVCA-NH2 (linker 2-8-15 via TATA, scaffold TATA) [BCY18312]	5.74

Proceeding to the next binder to report its pKd.
Q: Quote pKd reported for ACYLPDYLCGDEK(Pent4ynoyl)CA-NH2 (linker 2-9-14 via TATA; N-terminus assumed; SMILES C#CCCC(=O)NCCCC[C@@H]1NC(=O)[C@H](CCC(=O)O)NC(=O)[C@H](CC(=O)O)NC(=O)CNC(=O)[C@@H]2CSCCC(=O)N3CN(CN(C3)C(=O)CCSC[C@@H](C(=O)N[C@@H](C)C(N)=O)NC1=O)C(=O)CCSC[C@H](NC(=O)[C@H](C)N)C(=O)N[C@@H](Cc1ccc(O)cc1)C(=O)N[C@@H](CC(C)C)C(=O)N1CCC[C@H]1C(=O)N[C@@H](CC(=O)O)C(=O)N[C@@H](Cc1ccc(O)cc1)C(=O)N[C@@H](CC(C)C)C(=O)N2, scaffold TATA) [BCY16843] please.
A: 5.52
